// data source = the supplement of paper PMC6555819

- Test system: PPARg DBDmut:RXRa IVT, anti-PPARg (DBD mutation: PPARg1 K132A/R137A, NR concentration 270 nM, RXRa partner concentration 90 nM)
- assay method text: PBM binding z-score (relative to random genomic background probes); higher = stronger binding; sequences stand for … in GC…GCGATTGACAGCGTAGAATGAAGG
Lab note: anything with PBM binding z-score at or over -0.03 counts as TRUE; the rest go in FALSE.

primary sequence	category
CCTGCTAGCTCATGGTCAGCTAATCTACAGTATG	FALSE
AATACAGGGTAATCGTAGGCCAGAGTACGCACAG	TRUE
CAAACTAGGTCAATAGGTCAAAGTCCGCTTCCCG	TRUE
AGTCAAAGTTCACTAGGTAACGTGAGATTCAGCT	TRUE
GGAACGAGGGCAATCGAGTTGATAGCATGGCGAT	TRUE
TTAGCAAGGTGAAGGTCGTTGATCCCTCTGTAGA	FALSE

---

Items are presented alongside their recorded PBM binding z-score.
- Test system: VDR:RXRa (NR concentration 270 nM, RXRa partner concentration 90 nM)
- assay method text: PBM binding z-score (relative to random genomic background probes); higher = stronger binding; sequences stand for … in GC…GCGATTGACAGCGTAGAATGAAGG
property name: PBM binding z-score

primary sequence	test system	test result
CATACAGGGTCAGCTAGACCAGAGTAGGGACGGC	VDR:RXRa (NR concentration 270 nM, RXRa partner concentration 90 nM)	2.52
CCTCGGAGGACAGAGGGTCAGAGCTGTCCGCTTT	VDR:RXRa (NR concentration 270 nM, RXRa partner concentration 90 nM)	0.544
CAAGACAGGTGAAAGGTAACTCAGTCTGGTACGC	VDR:RXRa (NR concentration 270 nM, RXRa partner concentration 90 nM)	0.87
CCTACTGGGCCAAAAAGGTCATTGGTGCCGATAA	VDR:RXRa (NR concentration 270 nM, RXRa partner concentration 90 nM)	5.2
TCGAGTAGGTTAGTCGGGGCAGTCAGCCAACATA	VDR:RXRa (NR concentration 270 nM, RXRa partner concentration 90 nM)	0.666
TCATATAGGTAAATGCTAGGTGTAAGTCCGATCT	VDR:RXRa (NR concentration 270 nM, RXRa partner concentration 90 nM)	0.772
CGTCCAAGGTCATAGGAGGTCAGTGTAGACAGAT	VDR:RXRa (NR concentration 270 nM, RXRa partner concentration 90 nM)	6.49
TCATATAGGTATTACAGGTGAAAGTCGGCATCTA	VDR:RXRa (NR concentration 270 nM, RXRa partner concentration 90 nM)	1.34
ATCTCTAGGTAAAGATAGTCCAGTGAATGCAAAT	VDR:RXRa (NR concentration 270 nM, RXRa partner concentration 90 nM)	-0.0135
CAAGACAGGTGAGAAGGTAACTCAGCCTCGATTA	VDR:RXRa (NR concentration 270 nM, RXRa partner concentration 90 nM)	-0.155
TCGAGTAGGTTAGTCGGGGCATTAAGCCAACATA	VDR:RXRa (NR concentration 270 nM, RXRa partner concentration 90 nM)	1.66
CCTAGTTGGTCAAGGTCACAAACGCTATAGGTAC	VDR:RXRa (NR concentration 270 nM, RXRa partner concentration 90 nM)	3.73
ACTAGCAGGCCAAGTTTGAGTCACTCAAACAAAG	VDR:RXRa (NR concentration 270 nM, RXRa partner concentration 90 nM)	-0.614
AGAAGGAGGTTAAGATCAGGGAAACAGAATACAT	VDR:RXRa (NR concentration 270 nM, RXRa partner concentration 90 nM)	0.978
CCTAGCCGGCCAGGGTCACTCAAGCATTTCGCTT	VDR:RXRa (NR concentration 270 nM, RXRa partner concentration 90 nM)	2.37
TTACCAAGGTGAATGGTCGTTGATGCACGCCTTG	VDR:RXRa (NR concentration 270 nM, RXRa partner concentration 90 nM)	-0.0229
GCTAGCAGGCAATTTGGGTCACTCAATGACGGGC	VDR:RXRa (NR concentration 270 nM, RXRa partner concentration 90 nM)	0.222
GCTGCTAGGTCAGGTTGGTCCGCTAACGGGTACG	VDR:RXRa (NR concentration 270 nM, RXRa partner concentration 90 nM)	0.681
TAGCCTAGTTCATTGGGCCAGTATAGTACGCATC	VDR:RXRa (NR concentration 270 nM, RXRa partner concentration 90 nM)	1.17
CCTACTGGGCCAAAGGTAATTGATTCCAATGCTC	VDR:RXRa (NR concentration 270 nM, RXRa partner concentration 90 nM)	-0.387
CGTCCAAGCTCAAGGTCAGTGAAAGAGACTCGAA	VDR:RXRa (NR concentration 270 nM, RXRa partner concentration 90 nM)	1.18
GCTGCTAGGTCAACTGATGGTCAGCTTAAGCTCG	VDR:RXRa (NR concentration 270 nM, RXRa partner concentration 90 nM)	1.62
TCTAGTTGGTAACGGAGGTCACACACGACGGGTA	VDR:RXRa (NR concentration 270 nM, RXRa partner concentration 90 nM)	3.8
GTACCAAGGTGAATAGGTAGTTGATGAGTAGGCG	VDR:RXRa (NR concentration 270 nM, RXRa partner concentration 90 nM)	-0.15
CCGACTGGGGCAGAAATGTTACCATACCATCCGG	VDR:RXRa (NR concentration 270 nM, RXRa partner concentration 90 nM)	-0.557
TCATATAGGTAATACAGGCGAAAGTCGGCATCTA	VDR:RXRa (NR concentration 270 nM, RXRa partner concentration 90 nM)	0.97
ACTAGCAGGCCAAGTTTGGGTCAGTCAAACAAAG	VDR:RXRa (NR concentration 270 nM, RXRa partner concentration 90 nM)	0.056
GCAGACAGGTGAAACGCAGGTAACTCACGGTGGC	VDR:RXRa (NR concentration 270 nM, RXRa partner concentration 90 nM)	-0.56
TCGAGTAGGTTAGGGACATTCAGAATGGCGTCGA	VDR:RXRa (NR concentration 270 nM, RXRa partner concentration 90 nM)	-0.0636
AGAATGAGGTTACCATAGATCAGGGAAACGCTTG	VDR:RXRa (NR concentration 270 nM, RXRa partner concentration 90 nM)	0.941

---

Listed here are sequences together with their documented PBM binding z-score.
- Test system: PPARg:RXRa DBDmut IVT, anti-RXR (DBD mutation: RXRa K156A/R161A, NR concentration 270 nM, RXRa partner concentration 90 nM)
- assay method text: PBM binding z-score (relative to random genomic background probes); higher = stronger binding; sequences stand for … in GC…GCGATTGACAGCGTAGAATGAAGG

primary sequence	PBM binding z-score
TCTATTAGTTGATTAGGGCACCCGAAACAGCGGA	2.25
CCTAGCAGGCCAATCTGGGTCCCTCAAGGCTTGA	1.13
ATCGAAAGGTCGACGAGGCGAGTATACACCGTTT	0.214
TCTAGTTGGTCACGGAGGTCACACTCGACGGGTA	2.74
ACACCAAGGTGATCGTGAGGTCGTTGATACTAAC	0.605
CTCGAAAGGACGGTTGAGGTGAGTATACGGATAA	-0.361
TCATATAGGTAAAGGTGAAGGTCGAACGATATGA	4.25
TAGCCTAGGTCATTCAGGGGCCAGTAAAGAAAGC	1.81
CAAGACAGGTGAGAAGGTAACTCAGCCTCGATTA	0.761
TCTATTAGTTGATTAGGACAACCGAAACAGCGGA	2.5
CAAACTAGGTCACCGGAAGGTCAAGGTCCGCATG	8.67
CAAACTAGGTCACAGAGGTCAAAGTCCGTGCGTA	8.82

---

- System: PXR homodimer (NR concentration 270 nM)
- assay method text: PBM binding z-score (relative to random genomic background probes); higher = stronger binding; sequences stand for … in GC…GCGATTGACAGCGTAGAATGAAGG
// values below are reported PBM binding z-score

primary sequence	PBM binding z-score
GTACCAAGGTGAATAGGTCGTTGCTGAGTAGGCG	-0.427
CGTCCAAGGTCAAGTTCAGTGAAAGAGACTCGAA	3.9
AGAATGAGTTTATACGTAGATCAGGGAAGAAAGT	1.21
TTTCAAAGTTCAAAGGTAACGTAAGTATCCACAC	4.59
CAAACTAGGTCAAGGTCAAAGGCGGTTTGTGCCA	2.19
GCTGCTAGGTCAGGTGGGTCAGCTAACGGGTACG	-0.409

---

# PBM binding z-score values compiled below
- Test system: RARb homodimer (NR concentration 270 nM)
- assay method text: PBM binding z-score (relative to random genomic background probes); higher = stronger binding; sequences stand for … in GC…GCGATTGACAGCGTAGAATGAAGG

primary sequence	PBM binding z-score
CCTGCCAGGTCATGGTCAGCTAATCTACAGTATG	3.28
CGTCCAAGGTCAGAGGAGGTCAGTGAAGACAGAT	5.15
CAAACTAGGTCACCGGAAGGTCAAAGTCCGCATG	5.88
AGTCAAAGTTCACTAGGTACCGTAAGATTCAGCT	3.6
CCGAGTGGGGCAAGGTTACCATAACGCACAGCCA	1.3
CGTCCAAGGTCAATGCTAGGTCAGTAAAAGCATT	4.89
CCTTACGGGTCACTGACAGGTTATACCATTTGGA	3.56
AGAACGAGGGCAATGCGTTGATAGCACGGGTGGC	0.934
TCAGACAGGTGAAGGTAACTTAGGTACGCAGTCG	0.872
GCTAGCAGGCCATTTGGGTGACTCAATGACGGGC	-0.273
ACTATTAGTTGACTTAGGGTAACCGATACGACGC	0.611
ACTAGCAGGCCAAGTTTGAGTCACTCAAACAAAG	-0.195
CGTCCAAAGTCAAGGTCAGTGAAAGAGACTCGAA	3.54
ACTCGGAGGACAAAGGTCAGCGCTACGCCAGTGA	4.95
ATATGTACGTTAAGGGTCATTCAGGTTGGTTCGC	3.82
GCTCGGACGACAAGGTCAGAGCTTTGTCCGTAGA	2.73
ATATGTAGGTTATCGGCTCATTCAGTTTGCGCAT	0.158
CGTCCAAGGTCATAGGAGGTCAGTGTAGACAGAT	5.63
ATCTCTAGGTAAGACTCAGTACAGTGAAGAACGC	0.3
CCTACTGGGCCAAGGTCATTGGTCAGTCAAAGCA	3.51
CTACCAAGGTGAATAAGGTCGTTGATTACTATTC	2.05
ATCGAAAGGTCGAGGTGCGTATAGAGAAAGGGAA	2.47
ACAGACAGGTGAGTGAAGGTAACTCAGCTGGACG	0.005
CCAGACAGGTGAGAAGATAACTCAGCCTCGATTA	-0.0712
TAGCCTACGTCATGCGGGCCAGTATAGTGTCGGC	-0.71
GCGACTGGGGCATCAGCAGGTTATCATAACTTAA	0.979
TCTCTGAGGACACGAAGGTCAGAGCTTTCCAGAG	3.87
TCTCGGAGGACACGAAAGGTCATAGCTCGACATC	4.89
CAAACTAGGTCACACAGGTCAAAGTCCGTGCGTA	5.02
